# ASSAYED_TARGET: UniProt:P42568
# METHOD_DESCRIPTION: AF9 binding to AF4 blockers, potency – biochemical, cherry-picked samples, plate reader, dose response (AID 720495)
# PARTICULARS: biochemical protein-protein interaction assay
Inconclusive results are not listed.
Please respond with reported AC50 for every item in the list.

Query string: What value of AC50 on UniProt:P42568 does CN1CCN(CCCCOc2ccccc2C=O)CC1 have?
Result string: 10.6 µM

Query string: Checklist item: AC50 tested on UniProt:P42568, entry CCN(CC)c1ccc(C(=C2C=CC(=[N+](CC)CC)C=C2)c2ccc(N(CC)CC)cc2)cc1 , value?
Result string: 0.153 µM

Query string: Param readout = AC50; param system = UniProt:P42568; param query = CCCC(=O)NC(c1ccc(N(C)C)cc1)c1ccc2cccnc2c1O (stereo not given) ; response: value
Result string: 1.04 µM

Query string: What is its AC50 for UniProt:P42568? Entry: COc1ccc(NCc2nn(CC(=O)c3ccc(Br)cc3)c3[n+]2CCCCC3)cc1
Result string: 8.83 µM

Query string: Hello, I am looking for reported AC50 with UniProt:P42568 for C[C@@H]1CCCCO[C@H](CN(C)Cc2ccc(Cl)c(Cl)c2)[C@@H](C)CN([C@H](C)CO)C(=O)c2cc(N(C)C)ccc2O1 . Could you help?
Result string: 10.1 µM

---

# ASSAYED_TARGET: Protein AF-9 (Homo sapiens) (UniProt P42568)
# Sequence (P42568 whole entry, looked up): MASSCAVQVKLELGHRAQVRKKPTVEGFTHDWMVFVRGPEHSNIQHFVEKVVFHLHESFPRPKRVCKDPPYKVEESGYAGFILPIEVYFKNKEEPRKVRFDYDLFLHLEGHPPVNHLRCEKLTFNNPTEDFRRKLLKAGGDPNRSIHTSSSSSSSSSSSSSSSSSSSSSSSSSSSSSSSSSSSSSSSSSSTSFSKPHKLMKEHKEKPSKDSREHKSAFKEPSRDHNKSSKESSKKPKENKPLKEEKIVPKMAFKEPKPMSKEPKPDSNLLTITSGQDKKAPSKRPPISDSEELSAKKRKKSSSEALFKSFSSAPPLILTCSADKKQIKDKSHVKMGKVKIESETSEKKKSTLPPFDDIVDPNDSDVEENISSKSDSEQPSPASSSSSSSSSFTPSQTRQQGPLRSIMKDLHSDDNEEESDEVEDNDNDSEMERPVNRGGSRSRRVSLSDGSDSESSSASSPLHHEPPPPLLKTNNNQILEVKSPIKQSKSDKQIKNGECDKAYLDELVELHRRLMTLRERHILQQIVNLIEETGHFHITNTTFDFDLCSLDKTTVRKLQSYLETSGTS
# METHOD_DESCRIPTION: AF9 binding to AF4 blockers, potency – biochemical, cherry-picked samples, plate reader, dose response (AID 720495)
# PARTICULARS: biochemical protein-protein interaction assay, at 10 µM (top of the series)
Inconclusive results are not listed. The source made the active and inactive calls. The rule behind the calls is not given here.
READOUT_NAME: activity change, negative = inhibition

[
  {
    "MOLECULE": "CCOc1ccc(Nc2nc(NCC3CCCO3)c3ccccc3n2)cc1 (stereo not given)",
    "ASSAYED_TARGET": "Protein AF-9 (Homo sapiens) (UniProt P42568)",
    "activity change, negative = inhibition": "inactive"
  },
  {
    "MOLECULE": "CC1=NN(c2ccccc2)C(=O)/C1=C/C=C/c1ccc(N(C)C)cc1",
    "ASSAYED_TARGET": "Protein AF-9 (Homo sapiens) (UniProt P42568)",
    "activity change, negative = inhibition": "inactive"
  },
  {
    "MOLECULE": "Cc1cc(N=Nc2ccc(Cl)cc2)cc(CN2CCCC2)c1O",
    "ASSAYED_TARGET": "Protein AF-9 (Homo sapiens) (UniProt P42568)",
    "activity change, negative = inhibition": "inactive"
  },
  {
    "MOLECULE": "O=C(Cc1cccnc1)N1CC(=O)N2[C@H](C1)[C@H](c1ccc(C3=CCCC3)cc1)[C@@H]2CO",
    "ASSAYED_TARGET": "Protein AF-9 (Homo sapiens) (UniProt P42568)",
    "activity change, negative = inhibition": "inactive"
  },
  {
    "MOLECULE": "Cn1cc(CN2CCC(C(=O)NC(c3ccc(F)cc3)c3ccc4ccccc4n3)CC2)c2ccccc21 (stereo not given)",
    "ASSAYED_TARGET": "Protein AF-9 (Homo sapiens) (UniProt P42568)",
    "activity change, negative = inhibition": "inactive"
  },
  {
    "MOLECULE": "CCN1CCN(Cc2ccc(NC(=O)c3cc(NC(=O)c4nccnc4N)cc(OC)c3)cc2C(F)(F)F)CC1",
    "ASSAYED_TARGET": "Protein AF-9 (Homo sapiens) (UniProt P42568)",
    "activity change, negative = inhibition": "inactive"
  }
]

Query string: What activity change, negative = inhibition value was documented for this molecule, COc1ccc(N2CCN(CCCNC(=O)C(=O)c3c(C)n(C)c4ccccc34)CC2)cc1 ?
Result string: inactive

Query string: Item CCN1CCN(c2ccc(N)c(C)c2)CC1 has what recorded activity change, negative = inhibition?
Result string: inactive

Query string: What activity change, negative = inhibition value was documented for this molecule, Cc1cc2c(=Cc3ccc(N(C)C)cc3)c3ccccc3n2[n+]1C ?
Result string: inactive

Query string: Fill blank: measured activity change, negative = inhibition of the molecule c1ccc2c(c1)nc(Nc1ccc(N3CCCCC3)cc1)c1nncn12 is ____.
Result string: inactive
